FYI, the data here is from patent US6407094B1.

Parameter measured: melting point

Solved cases below.
- Molecule: "CC(C)(C)C(=O)OCc1cc2c(cc1C#Cc1ccccc1)NC(=O)CC(c1cccc(C#N)c1)=N2"
  melting point: "218 °C"
- Molecule: "N#Cc1cccc(C2=Nc3cc(O)c(-c4cc(F)ccc4F)cc3NC(=O)C2)c1"
  melting point: "> 250 °C"
- Molecule: "Cc1cc2c(cc1-c1ccc(F)cc1)NC(=O)CC(c1cccc(-n3ccnc3)c1)=N2"
  melting point: "196 °C"
- Molecule: "COCCOc1cc2c(cc1-c1ccc(F)cc1)NC(=O)CC(c1cccc(-n3ccnc3)c1)=N2"
  melting point: "196 to 197 °C"
- Molecule: "N#Cc1cccc(C2=Nc3cc(SCC(=O)O)c(C#Cc4ccccc4)cc3NC(=O)C2)c1"
  melting point: "202 °C (dec.)"

Value of melting point reported for the molecule `O=C1CCN(c2cc3c(cc2C#Cc2ccccc2)NC(=O)CC(c2cccc(-n4ccnc4)c2)=N3)CC1` is 231 °C (dec.)

Value of melting point reported for the molecule `O=C1CC(c2cccc(-n3ccnc3)c2)=Nc2cc(N3C[C@@H](O)[C@@H](O)C3)c(-c3ccc(F)cc3)cc2N1` is 244 °C

Value of melting point reported for the molecule `O=C1CC(c2cccc(-n3ccnc3)c2)=Nc2cc(N3CCC(O)CC3)c(-c3ccc(F)cc3)cc2N1` is 238 to 240 °C

Value of melting point reported for the molecule `COc1cc2c(cc1-c1ccccc1F)NC(=O)CC(c1cccc(-n3ccnc3C)c1)=N2` is 220 to 222 °C

Value of melting point reported for the molecule `Cc1nccn1-c1cccc(C2=Nc3cc(O)c(-c4ccccc4F)cc3NC(=O)C2)c1` is > 250 °C

Value of melting point reported for the molecule `COC(=O)CSc1cc2c(cc1C#Cc1ccccc1)NC(=O)CC(c1cccc(C#N)c1)=N2` is 201 °C (dec.)
